# System: SW-620 colon
# assay_details: NCI tumour cell line growth inhibition, 48 h
measured_quantity: TGI

Reference set (5 entries):
>  <molecule>
COc1cccc(C2C(C#N)=C(N)Oc3cc(N)ccc32)c1 (centres undefined)

>  <target_of_assay>
SW-620 colon

>  <measured_quantity>
TGI

>  <observed_measurement>
> 100 µM

$$$$
>  <molecule>
Cc1[nH]c(=O)nc(N/N=C/c2ccc(Cl)cc2)c1C(=O)NC(C)(CO)CO

>  <target_of_assay>
SW-620 colon

>  <measured_quantity>
TGI

>  <observed_measurement>
> 100 µM

$$$$
>  <molecule>
CC1(C)CC(=O)C2=C(C1)c1c(ccc3ccccc13)NC2c1cn(Cc2ccc(Cl)cc2)c2ccccc12 (centres undefined)

>  <target_of_assay>
SW-620 colon

>  <measured_quantity>
TGI

>  <observed_measurement>
> 100 µM

$$$$
>  <molecule>
N/N=C1\C(=O)N(C2CCCCC2)C(=O)C1C(=O)NC1CCCCC1 (centres undefined)

>  <target_of_assay>
SW-620 colon

>  <measured_quantity>
TGI

>  <observed_measurement>
> 100 µM

$$$$
>  <molecule>
COc1ccc2nc3cccc([N+](=O)[O-])c3c(NCCO)c2c1

>  <target_of_assay>
SW-620 colon

>  <measured_quantity>
TGI

>  <observed_measurement>
0.00862 µM

$$$$

I need TGI for every entry listed below, if you could help.
1. CN1C2(c3ccccc3)c3c(-c4ccccc4)sc(-c4ccccc4)c3C1(c1ccccc1)C1C(=O)N(c3ccccc3)C(=O)C12 (centres undefined)
2. C=C1C[C@](OC)([C@H](O)C(=O)N[C@@H](OC)[C@@H]2C[C@@H](O)C(C)(C)[C@@H](C[C@@H](COC)OC)O2)O[C@H](C)[C@@H]1C

Response:
1. > 100 µM
2. 0.00508 µM

----------
# System: UACC-62 melanoma
# assay_details: NCI tumour cell line growth inhibition, 48 h
Task for the reader: assign each of the following compounds its reported TGI.
Numbers only, in µM.

Recorded results for 5 compounds are shown here.
>  <compound>
Cc1ccc(NC(=O)NC(=O)c2ccc([N+](=O)[O-])cc2[N+](=O)[O-])cc1Oc1ncc(Cl)cn1

>  <TGI [µM]>
21

$$$$
>  <compound>
Cc1cc2cc3cc(C)c(N(C)C)cc3nc2cc1N(C)C

>  <TGI [µM]>
17.2

$$$$
>  <compound>
CC1OC(OC2C(O[C@H]3CC[C@@]4(C)[C@@H](CC[C@@H]5[C@@H]4CC[C@]4(C)[C@@H]6[C@H](C[C@@H]54)O[C@]4(CC[C@@H](C)CO4)[C@H]6C)C3)OC(CO)C(OC3OC(CO)C(O)C(OC4OCC(O)C(O)C4O)C3OC3OCC(O)C(O)C3O)C2O)C(O)C(O)C1O (stereo partly drawn)

>  <TGI [µM]>
1.77

$$$$
>  <compound>
ClC1=C(Cl)C(Cl)=C(Cl)C1=C/C=C/c1ccccc1

>  <TGI [µM]>
0.467

$$$$
>  <compound>
CCCc1c(OC)c(=O)c2c(OC)cc(OC)c3c4c(OC)cc(OC)c5c(=O)c(OC)c(CCC)c(c1c23)c54

>  <TGI [µM]>
24.1

$$$$

Give me TGI for each of these compounds, listed below.
1. NC(=NCCCOc1ccc(Cl)cc1)Nc1ccc(Cl)cc1
2. CCn1c2c(n(CC)c1=S)-c1c(n(CC)c(=S)n1CC)SSSS2
3. COc1cc(NCCCCN=C(N)NC(N)=NC(C)C)c2ncccc2c1
4. CC(C)(C)c1nc2c(o1)C(=O)c1ccccc1C2=O

Response:
3.94
18.6
24.3
1.58
